# Target or test system: T1, HER-3 (human, on cells) (human, UniProt P21860 20-1342)
# T1 construct: whole, on cells; also called ErbB3; HER-3+ cell lines
# Experimental protocol: indirect FACS Scatchard analysis on cells
Record form. Attribute: Kd. Fill in for each entry.
Numbers only, in nM.

binder="U1-61 (antibody, V domains shown) VH: QVQLQESGPGLVKPSQTLSLTCTVSGVSISSGGYYWSWIRQHPGMGLEWIGYIYYSGSTYYNPSLKSRVTISEDTSKNQFSLKLSSVTAADTAVYYCARDSESEYSSSSNYGMDVWGQGTTVTVS VL: DIQMTQSPSSLSASVGDRITITCRASQTISSYLNWYQQKPGKAPKLLIYAASSLQGGVPSRFSGSVSGTDFTLTVSSLQPEDFATYYCQQSYSNPLTFGGGTKVEIK" data_value=0.13

List reported Kd for each of these binders:
1. U1-44 (antibody, V domains shown) VH: EVQLVQSGAEVKKPGESLKISCKGSGYSFTSYWIGWVRQMPGKGLEWMGIIWPGDSDTIYSPSFQGQVTISADKSISTAYLQWSSLKASDTAMYYCARHENYGDYNYWGQGTLVTVSS VL: DIQMTQSPSSLSASVGDRVTITCRASQSIRSYLNWYQQKPGNAPKLLIYAASSLQSGVPSRFSGSGSGTDFTLTISSLQPEDFALYYCQQSISSPLTFGGGTKVEIK
2. U1-43 (antibody, V domains shown) VH: QVQLQESGPGLVKPSQTLSLTCTVSGGSISSGGYYWSWIRQHPGKGLEWIGYIYYSGSTYYNPSLRSRVTISVDTSKNQFSLKLSSVTAADTAVYYCARDREREWDDYGDPQGMDVWGQGTTVTVS VL: DIQMTQSPSSLSASVGDRVTITCRASQSISSYLHWYQQKPGKAPKLLIHAASSLQSGVPSRFSGSGSGTDFTLTISSLQPEDFATYYCQQSYSNPLTFGGGTKVEIQ
3. U1-39 (antibody, V domains shown) VH: EVQLVESGGGLIQPGGSLRLSCAASGFTVSSNYMSWVRQAPGKGLDWVSVIYSGGSTYYADSVKGRFTISRDNSKNTLYLQMNSLRAEDTAVYYCARGQWLDVWGQGTTVTVSS VL: DIVMTQSPLSLPVTPGEPASISCRSSQSLLHSNGYNYLDWYLQRPGQSPQLLFYLGFHRASGVPDRFSGSGSGTDFTLKISRVEAEDVGVYYCRQALQTPLTFGGGTKVEIK

Data returned:
1. 4
2. 0.57
3. 102

Reference for the values: patent US20110229406A1
